- Test summary: Phase 1b study in female adults with cystitis, plasma PK
- Assay type: in vivo, human
- Conditions used: female, human, plasma, po, 300 mg, Day 1; 300 mg po (n = 10); median; read-out: tmax
- Method: According to the study design, a randomized (1:1:1), open-label, parallel designed Phase 1b study comparing 3 dosing regimens of Compound 1 (9-[(2,2-dimethyl-propyl amino)-methyl-minocycline) in the treatment of female adults with cystitis was conducted. […] Blood samples were collected and analyzed for Compound 1 concentration at the following times. […]
Observable: Tmax (h)
The reply should be a number in h, with the unit left off.

Form field Tmax, entry CN(C)c1cc(CNCC(C)(C)C)c(O)c2c1C[C@H]1C[C@H]3[C@H](N(C)C)C(O)=C(C(N)=O)C(=O)[C@@]3(O)C(O)=C1C2=O : 3

* * *

- Test system: K. oxytoca
- Test summary: In vitro MIC, 2010 surveillance isolates
- Format: cell-based
- Conditions used: L. Amer; CLSI breakpoints
I'd be grateful if you could share measured % R (resistance) for these entries.
The reply should be a number in %, with the unit left off.

Form field % R (resistance), entry C[C@H]1COc2c(N3CCN(C)CC3)c(F)cc3c(=O)c(C(=O)O)cn1c23 [Levofloxacin] : 16

Form field % R (resistance), entry C[C@H]1c2cccc(O)c2C(=O)C2=C(O)[C@]3(O)C(=O)C(C(N)=O)=C(O)[C@@H](N(C)C)[C@@H]3[C@@H](O)[C@@H]21 [Doxycycline] : 12

Form field % R (resistance), entry NCC[C@H](O)C(=O)N[C@@H]1C[C@H](N)[C@@H](O[C@H]2O[C@H](CN)[C@@H](O)[C@H](O)[C@H]2O)[C@H](O)[C@H]1O[C@H]1O[C@H](CO)[C@@H](O)[C@H](N)[C@H]1O [Amikacin] : 8

* * *

- Test summary: Phase 1b study in female adults with cystitis, plasma PK
- Format: in vivo, human
- Conditions used: female, human, plasma, oral, 300 mg, plasma, Day 5, IV_PO300; read-out: T½, Mean (converted)
Observable: half-life (h)
The reply should be a number in h, with the unit left off.

Form field half-life, entry CN(C)c1cc(CNCC(C)(C)C)c(O)c2c1C[C@H]1C[C@H]3[C@H](N(C)C)C(O)=C(C(N)=O)C(=O)[C@@]3(O)C(O)=C1C2=O [Compound 1] : 13.8

* * *

- System: plasma proteins
- Test summary: In vitro plasma protein binding (ultrafiltration), human plasma
- Assay type: in vitro ADME
- Conditions used: male, human, plasma; Concentration 10,000 ng/mL
Observable: fraction unbound at 10000 ng/mL
Could you keep your reply to the number by itself?

Form field fraction unbound at 10000 ng/mL, entry CN(C)c1cc(CNCC(C)(C)C)c(O)c2c1C[C@H]1C[C@H]3[C@H](N(C)C)C(O)=C(C(N)=O)C(=O)[C@@]3(O)C(O)=C1C2=O [Compound 1] : 0.798

* * *

I'd be grateful if you could share measured MIC90 for these entries.
- Test system: MRSA
- Test summary: In vitro MIC, 2010 surveillance isolates
- Type: cell-based
- Conditions used: L. Amer; N=506
The reply should be a number in µg/mL, with the unit left off.

Form field MIC90, entry CN[C@H](CC(C)C)C(=O)N[C@H]1C(=O)N[C@@H](CC(N)=O)C(=O)N[C@H]2C(=O)N[C@H]3C(=O)N[C@H](C(=O)N[C@H](C(=O)O)c4cc(O)cc(O)c4-c4cc3ccc4O)[C@H](O)c3ccc(c(Cl)c3)Oc3cc2cc(c3O[C@@H]2O[C@H](CO)[C@@H](O)[C@H](O)[C@H]2O[C@H]2C[C@](C)(N)[C@H](O)[C@H](C)O2)Oc2ccc(cc2Cl)[C@H]1O : 1

Form field MIC90, entry CN(C)c1cc(NC(=O)CNC(C)(C)C)c(O)c2c1C[C@H]1C[C@H]3[C@H](N(C)C)C(O)=C(C(N)=O)C(=O)[C@@]3(O)C(O)=C1C2=O : 0.25

Form field MIC90, entry CN(C)c1cc(CNCC(C)(C)C)c(O)c2c1C[C@H]1C[C@H]3[C@H](N(C)C)C(O)=C(C(N)=O)C(=O)[C@@]3(O)C(O)=C1C2=O : 0.25

Form field MIC90, entry C[C@H]1c2cccc(O)c2C(=O)C2=C(O)[C@]3(O)C(=O)C(C(N)=O)=C(O)[C@@H](N(C)C)[C@@H]3[C@@H](O)[C@@H]21 : 0.25

* * *

- Test system: MS CoNS
- Test summary: In vitro MIC, 2010 surveillance isolates
- Type: cell-based, Coagulase-Negative Staphylococcus
- Conditions used: N America; N=191
Observable: MIC90 (µg/mL)
The reply should be a number in µg/mL, with the unit left off.

Form field MIC90, entry CN(C)c1cc(CNCC(C)(C)C)c(O)c2c1C[C@H]1C[C@H]3[C@H](N(C)C)C(O)=C(C(N)=O)C(=O)[C@@]3(O)C(O)=C1C2=O : 0.5

Form field MIC90, entry C[C@H]1c2cccc(O)c2C(=O)C2=C(O)[C@]3(O)C(=O)C(C(N)=O)=C(O)[C@@H](N(C)C)[C@@H]3[C@@H](O)[C@@H]21 : 1

Form field MIC90, entry CO/N=C(\C(=O)N[C@@H]1C(=O)N2C(C(=O)O)=C(CSc3nc(=O)c(=O)[nH]n3C)CS[C@H]12)c1csc(N)n1 : 4

Form field MIC90, entry CN(C)c1cc(NC(=O)CNC(C)(C)C)c(O)c2c1C[C@H]1C[C@H]3[C@H](N(C)C)C(O)=C(C(N)=O)C(=O)[C@@]3(O)C(O)=C1C2=O : 0.25

Form field MIC90, entry CN[C@H](CC(C)C)C(=O)N[C@H]1C(=O)N[C@@H](CC(N)=O)C(=O)N[C@H]2C(=O)N[C@H]3C(=O)N[C@H](C(=O)N[C@H](C(=O)O)c4cc(O)cc(O)c4-c4cc3ccc4O)[C@H](O)c3ccc(c(Cl)c3)Oc3cc2cc(c3O[C@@H]2O[C@H](CO)[C@@H](O)[C@H](O)[C@H]2O[C@H]2C[C@](C)(N)[C@H](O)[C@H](C)O2)Oc2ccc(cc2Cl)[C@H]1O : 2

* * *

- Test summary: Phase 1b study in female adults with cystitis, plasma PK
- Assay type: in vivo, human
- Conditions used: female, human, plasma, oral, 450 mg, plasma, Day 1, PO450; read-out: AUC(0-12 hrs), Mean
Observable: AUC(0-t) (ng·h/mL)
The reply should be a number in ng·h/mL, with the unit left off.

Form field AUC(0-t), entry CN(C)c1cc(CNCC(C)(C)C)c(O)c2c1C[C@H]1C[C@H]3[C@H](N(C)C)C(O)=C(C(N)=O)C(=O)[C@@]3(O)C(O)=C1C2=O [Compound 1] : 6850

* * *

- System: plasma proteins
- Test summary: In vitro plasma protein binding (ultrafiltration), human plasma
- Format: in vitro ADME
- Conditions used: male, human, plasma; Mean over concentrations
Observable: fraction unbound
Could you keep your reply to the number by itself?

Record CN(C)c1cc(CNCC(C)(C)C)c(O)c2c1C[C@H]1C[C@H]3[C@H](N(C)C)C(O)=C(C(N)=O)C(=O)[C@@]3(O)C(O)=C1C2=O [Compound 1] ; system plasma proteins; fraction unbound = 0.787

* * *

- Test system: A. baumanii
- Test summary: In vitro MIC, 2010 surveillance isolates
- Assay type: cell-based
- Conditions used: Europe; N=145
Observable: MIC90

Form field MIC90, entry C[C@@H](O)[C@H]1C(=O)N2C(C(=O)O)=C(SCCN=CN)C[C@H]12 : > 8 µg/mL

Form field MIC90, entry C[C@H]1COc2c(N3CCN(C)CC3)c(F)cc3c(=O)c(C(=O)O)cn1c23 : > 4 µg/mL

Form field MIC90, entry C[C@H]1c2cccc(O)c2C(=O)C2=C(O)[C@]3(O)C(=O)C(C(N)=O)=C(O)[C@@H](N(C)C)[C@@H]3[C@@H](O)[C@@H]21 : > 8 µg/mL

Form field MIC90, entry CO/N=C(\C(=O)N[C@@H]1C(=O)N2C(C(=O)O)=C(CSc3nc(=O)c(=O)[nH]n3C)CS[C@H]12)c1csc(N)n1 : > 8 µg/mL

Form field MIC90, entry NCC[C@H](O)C(=O)N[C@@H]1C[C@H](N)[C@@H](O[C@H]2O[C@H](CN)[C@@H](O)[C@H](O)[C@H]2O)[C@H](O)[C@H]1O[C@H]1O[C@H](CO)[C@@H](O)[C@H](N)[C@H]1O : > 32 µg/mL

Form field MIC90, entry CN(C)c1cc(CNCC(C)(C)C)c(O)c2c1C[C@H]1C[C@H]3[C@H](N(C)C)C(O)=C(C(N)=O)C(=O)[C@@]3(O)C(O)=C1C2=O : 4 µg/mL

Form field MIC90, entry CO/N=C(\C(=O)N[C@@H]1C(=O)N2C(C(=O)[O-])=C(C[N+]3(C)CCCC3)CS[C@H]12)c1csc(N)n1 [Cefepime] : > 16 µg/mL

Form field MIC90, entry CN(C)c1cc(NC(=O)CNC(C)(C)C)c(O)c2c1C[C@H]1C[C@H]3[C@H](N(C)C)C(O)=C(C(N)=O)C(=O)[C@@]3(O)C(O)=C1C2=O : 2 µg/mL
